From: PubChem BioAssay (NCI)

- Tested on: OVCAR-5 ovarian
- assay_method_text: NCI tumour cell line growth inhibition, 48 h
metric_name: TGI

{"columns": ["compound", "result"],
 "data": [
  ["NC(=O)c1nnsc1NN=O", "> 100 µM"],
  ["CC1=CC(O)C(C(O)(C(F)(F)F)C(F)(F)F)C(C)(C)C1 (centres undefined)", "> 10 µM"],
  ["Cc1nc(-c2cnc(NC(C)C)n(C)c2=O)ccc1Oc1ccnc(-c2cnn(C)c2)c1", "> 100 µM"],
  ["COc1ccc(Cn2cc3c(c2)-c2oncc2CC3)cc1OC", "> 41.9 µM"],
  ["C[C@@H](Nc1nc(Nc2ccc(F)c(Cl)c2)nc2c(C3=CCNCC3)cccc12)C1CC1", "3.25 µM"],
  ["COc1cc2c(cc1O)CN1CCC23C=C[C@@H](O)CC13 (some centres undefined)", "> 100 µM"],
  ["CCc1[nH]c(=O)c2oc3cc4ccccc4cc3c2c1C(=O)O", "> 10 µM"],
  ["CC1C(=O)c2cc3c(cc2CCN(C)Cc2c1ccc1c2OCO1)OCO3 (centres undefined)", "> 75 µg/mL"],
  ["CCN(CC)CC(=O)NC1c2ccccc2Oc2c(C)cccc21 (centres undefined)", "> 100 µM"],
  ["O=C(N/C(=C\\c1ccccc1Cl)c1nc2ccccc2[nH]1)c1ccccc1", "> 100 µM"],
  ["CCOc1ccc2c(c1)CN(Cc1ccc(Cl)cc1)CO2", "46.2 µM"],
  ["O=C(Nc1ccccc1C(F)(F)F)c1ccc(NC2=C(Cl)C(=O)N(Cc3ccccc3)C2=O)cc1", "> 100 µM"],
  ["COC(=O)C1(C)CC2C(C)(CCC3(C)C4=CC=C5C(=CC(=O)C(O)=C5C)C4(C)CCC23C)CC1O (centres undefined)", "3.32 µM"],
  ["CCCCCCCCCCCCCCCCCCOc1ccccc1CC(=O)OCC[N+](CC)(CC)CC", "8.52 µM"],
  ["O=c1c2ccccc2nc(-c2ccccc2Cl)n1-c1nnc(C(F)(F)F)s1", "43.8 µM"],
  ["CCOC(=O)c1cnc2c(ccc3[nH]cccc32)c1=O", "> 100 µM"],
  ["CC(=O)OCC1OC(n2c(N)c(C#N)c(C)c(C#N)c2=S)C(OC(C)=O)C(OC(C)=O)C1OC(C)=O (centres undefined)", "> 100 µM"],
  ["CN=C(N)N=Nc1c(O)[nH]c2ccccc12", "> 100 µM"],
  ["COc1cc(C(c2cccc3ccccc23)N2C(=O)CCC2C(=O)O)cc(OC)c1OC (centres undefined)", "> 100 µM"],
  ["Clc1ccc2ncc(-c3cccc(NC4CNC4)n3)n2c1", "> 100 µM"],
  ["C[C@@H](NC(=O)c1ncnc(N)c1Cl)c1ncc(C(=O)Nc2cc(C(F)(F)F)c(Cl)cn2)s1", "> 90.5 µM"],
  ["COc1cc(/C=N/c2ccccn2)cc(OC)c1OC", "> 100 µM"],
  ["COC(=O)C1CC23C4=C(CCC41)CCC1CN4CC(C)C(CC(OC(C)=O)C12COC(C)=O)C43O (centres undefined)", "> 100 µM"],
  ["O=Cc1c(-c2ccccc2)[nH]c2ccccc2c1=O", "> 100 µM"],
  ["CN(C)/C=N\\c1nncc2[nH]cnc12", "> 100 µM"],
  ["C/C(=N\\NC(=S)NC(CCC(=O)O)C(=O)O)c1cnccn1 (centres undefined)", "> 100 µM"],
  ["COc1cc(C2c3cc4c(cc3OC(NCCc3ccccc3)C2C)OCO4)cc(OC)c1OC (centres undefined)", "> 100 µM"],
  ["Oc1cnc2c(O)cccc2c1", "> 100 µM"],
  ["C=C1C(=O)O[C@H]2[C@H]1CC/C(Cn1cc(-c3cccc(Cl)c3)nn1)=C\\CC[C@@]1(C)O[C@@H]21", "2.78 µM"]
]}
